molecular target: human ciliary process beta-adrenergic receptors (Homo sapiens); construct: ciliary process from human donor eyes was assayed biochemically; from tissue; host or cells: ciliary process from human donor eyes; test: biochemical; settings: human ciliary process; Table 3; read-out: Ki for Isoproterenol-Stimulated Adenylate Cyclase
Sequence (P07550 whole entry): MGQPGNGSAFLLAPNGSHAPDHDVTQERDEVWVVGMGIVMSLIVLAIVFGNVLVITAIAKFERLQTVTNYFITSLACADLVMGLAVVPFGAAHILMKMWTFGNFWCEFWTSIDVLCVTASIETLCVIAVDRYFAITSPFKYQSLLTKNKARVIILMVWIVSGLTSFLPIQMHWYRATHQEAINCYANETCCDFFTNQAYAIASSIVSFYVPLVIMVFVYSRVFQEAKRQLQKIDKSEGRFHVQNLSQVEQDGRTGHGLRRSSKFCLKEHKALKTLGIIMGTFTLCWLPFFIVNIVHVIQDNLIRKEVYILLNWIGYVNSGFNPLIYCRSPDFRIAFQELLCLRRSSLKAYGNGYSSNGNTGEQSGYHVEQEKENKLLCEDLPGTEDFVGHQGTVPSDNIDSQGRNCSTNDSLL
quantity measured: Ki (nM)
Field: numeric (nM). Do not append units.

Observed Ki, human ciliary process beta-adrenergic receptors (Homo sapiens), Cc1ccc(C(O)C(C)NC(C)C)cc1 (stereo not shown) : 740
